- TEST SYSTEM: human sodium ion channel 1.7 (hNav1.7) (Homo sapiens, UniProt Q15858)
- Sequence (Q15858 whole entry): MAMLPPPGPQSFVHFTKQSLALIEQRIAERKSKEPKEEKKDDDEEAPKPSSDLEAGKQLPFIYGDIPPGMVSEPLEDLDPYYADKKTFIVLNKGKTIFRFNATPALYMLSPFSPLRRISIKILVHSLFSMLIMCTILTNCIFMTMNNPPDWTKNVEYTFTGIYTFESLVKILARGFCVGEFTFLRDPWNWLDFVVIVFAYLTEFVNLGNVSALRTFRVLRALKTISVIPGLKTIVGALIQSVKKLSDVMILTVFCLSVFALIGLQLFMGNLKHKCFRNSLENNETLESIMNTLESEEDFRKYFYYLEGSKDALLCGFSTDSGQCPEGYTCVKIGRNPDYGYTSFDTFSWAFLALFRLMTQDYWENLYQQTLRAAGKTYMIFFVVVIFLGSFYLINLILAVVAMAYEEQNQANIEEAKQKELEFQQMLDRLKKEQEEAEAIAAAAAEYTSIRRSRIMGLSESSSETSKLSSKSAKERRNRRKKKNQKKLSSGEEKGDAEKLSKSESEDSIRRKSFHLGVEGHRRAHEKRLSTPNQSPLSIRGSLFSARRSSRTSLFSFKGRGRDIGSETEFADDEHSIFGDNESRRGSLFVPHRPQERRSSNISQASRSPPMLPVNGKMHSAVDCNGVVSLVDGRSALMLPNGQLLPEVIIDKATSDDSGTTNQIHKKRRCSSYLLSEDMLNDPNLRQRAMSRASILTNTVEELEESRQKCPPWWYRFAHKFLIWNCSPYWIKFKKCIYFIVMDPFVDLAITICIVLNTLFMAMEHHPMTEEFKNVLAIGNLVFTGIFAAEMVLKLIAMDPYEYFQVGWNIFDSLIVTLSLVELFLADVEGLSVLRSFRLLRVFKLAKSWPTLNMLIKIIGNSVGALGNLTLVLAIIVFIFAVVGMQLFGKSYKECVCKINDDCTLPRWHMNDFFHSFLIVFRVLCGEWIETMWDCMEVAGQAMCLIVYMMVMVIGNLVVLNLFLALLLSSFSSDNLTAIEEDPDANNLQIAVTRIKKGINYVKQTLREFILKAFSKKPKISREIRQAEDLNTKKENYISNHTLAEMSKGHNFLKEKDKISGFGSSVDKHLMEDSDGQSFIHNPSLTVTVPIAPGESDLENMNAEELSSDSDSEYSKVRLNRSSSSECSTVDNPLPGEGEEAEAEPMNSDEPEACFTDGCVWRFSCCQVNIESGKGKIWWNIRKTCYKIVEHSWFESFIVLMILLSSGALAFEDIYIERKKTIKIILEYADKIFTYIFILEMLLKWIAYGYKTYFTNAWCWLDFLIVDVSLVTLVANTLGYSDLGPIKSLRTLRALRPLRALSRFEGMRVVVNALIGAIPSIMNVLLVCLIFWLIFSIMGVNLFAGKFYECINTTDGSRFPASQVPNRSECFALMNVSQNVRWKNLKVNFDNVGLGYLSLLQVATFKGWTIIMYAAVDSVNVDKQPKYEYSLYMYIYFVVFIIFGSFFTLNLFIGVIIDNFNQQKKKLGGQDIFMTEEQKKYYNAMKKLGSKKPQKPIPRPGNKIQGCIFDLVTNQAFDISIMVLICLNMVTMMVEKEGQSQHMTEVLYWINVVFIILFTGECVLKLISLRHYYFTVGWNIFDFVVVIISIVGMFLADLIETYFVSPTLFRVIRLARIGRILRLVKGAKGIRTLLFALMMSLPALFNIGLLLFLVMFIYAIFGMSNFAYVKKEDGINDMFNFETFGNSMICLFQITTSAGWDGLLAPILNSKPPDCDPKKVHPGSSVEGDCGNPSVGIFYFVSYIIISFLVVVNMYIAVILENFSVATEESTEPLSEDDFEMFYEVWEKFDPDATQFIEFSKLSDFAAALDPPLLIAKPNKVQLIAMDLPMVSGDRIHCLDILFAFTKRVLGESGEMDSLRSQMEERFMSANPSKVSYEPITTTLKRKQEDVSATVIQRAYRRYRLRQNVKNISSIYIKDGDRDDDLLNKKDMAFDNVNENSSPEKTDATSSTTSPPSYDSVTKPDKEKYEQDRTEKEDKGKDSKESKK
- EXPERIMENTAL DETAILS: Blocking effect against sodium ion channel Nav1.7, IonFlux16 auto patch clamp in hNav1.7 HEK293 cells
- Format: cell-based
- CONDITION SET: hNav1.7 HEK293 cells; inhibition of peak current after 50 seconds treatment; eight concentrations; read-out: IC50
METRIC: IC50 (nM)

Please look at this molecule and report its IC50: CS(=O)(=O)NC(=O)c1ccc(-n2nc(-c3ccc(F)cc3)c3cc(Cl)ccc32)c(F)c1
350

Please look at this molecule and report its IC50: CS(=O)(=O)NC(=O)c1cc(Cl)c(-n2cc(-c3ccc(F)cc3)c3cccnc32)cc1F
400

Please look at this molecule and report its IC50: CS(=O)(=O)NC(=O)c1ccc(-n2nc(-c3cccc(F)c3)c3cc(Cl)ccc32)c(C#N)c1
2170

Please look at this molecule and report its IC50: Cc1ccccc1-c1nn(-c2cc(F)c(C(=O)NS(C)(=O)=O)cc2Cl)c2ccc(F)cc12
60

Please look at this molecule and report its IC50: CS(=O)(=O)NC(=O)c1cc(Cl)c(-n2nc(-c3ccccc3C(F)(F)F)c3cc(Cl)ccc32)cc1F
41

Please look at this molecule and report its IC50: CS(=O)(=O)NC(=O)c1ccc(-n2cc(-c3ccc(Cl)cc3)c3cc(Cl)ccc32)nc1
5960

a: COc1ccc(-c2nn(-c3cc(F)c(C(=O)NS(C)(=O)=O)cc3Cl)c3ccc(Cl)cc23)cc1
b: CS(=O)(=O)NC(=O)c1cc(Cl)c(-n2nc(/C=C/c3ccccn3)c3cc(Cl)ccc32)cc1F
c: CS(=O)(=O)NC(=O)c1ccc(-n2nc(-c3ccc(C(F)(F)F)cc3)c3cc(Cl)ccc32)c(C#N)c1
Reorder the items by IC50, least to greatest. Could you list the labels in the order requested?
a, c, b
(a: 108 nM, c: 1340 nM, b: 2170 nM)

a: CS(=O)(=O)NC(=O)c1cc(Cl)c(-n2nc(-c3c(F)cccc3Cl)c3cc(Cl)ccc32)cc1F
b: CS(=O)(=O)NC(=O)c1cc(Cl)c(-n2nc(-c3ccc(F)cc3Cl)c3cc(F)ccc32)cc1F
c: CS(=O)(=O)NC(=O)c1ccc(-n2nc(-c3ccccc3F)c3cc(Cl)ccc32)c(C#N)c1
Output the entries ranked by IC50 from maximum down to minimum. Could you list the labels in the order requested?
c, a, b
